measured-on: Disintegrin and metalloproteinase domain-containing protein 17 (Homo sapiens, UniProt P78536)
Sequence (P78536 whole entry, the tested form may be a part): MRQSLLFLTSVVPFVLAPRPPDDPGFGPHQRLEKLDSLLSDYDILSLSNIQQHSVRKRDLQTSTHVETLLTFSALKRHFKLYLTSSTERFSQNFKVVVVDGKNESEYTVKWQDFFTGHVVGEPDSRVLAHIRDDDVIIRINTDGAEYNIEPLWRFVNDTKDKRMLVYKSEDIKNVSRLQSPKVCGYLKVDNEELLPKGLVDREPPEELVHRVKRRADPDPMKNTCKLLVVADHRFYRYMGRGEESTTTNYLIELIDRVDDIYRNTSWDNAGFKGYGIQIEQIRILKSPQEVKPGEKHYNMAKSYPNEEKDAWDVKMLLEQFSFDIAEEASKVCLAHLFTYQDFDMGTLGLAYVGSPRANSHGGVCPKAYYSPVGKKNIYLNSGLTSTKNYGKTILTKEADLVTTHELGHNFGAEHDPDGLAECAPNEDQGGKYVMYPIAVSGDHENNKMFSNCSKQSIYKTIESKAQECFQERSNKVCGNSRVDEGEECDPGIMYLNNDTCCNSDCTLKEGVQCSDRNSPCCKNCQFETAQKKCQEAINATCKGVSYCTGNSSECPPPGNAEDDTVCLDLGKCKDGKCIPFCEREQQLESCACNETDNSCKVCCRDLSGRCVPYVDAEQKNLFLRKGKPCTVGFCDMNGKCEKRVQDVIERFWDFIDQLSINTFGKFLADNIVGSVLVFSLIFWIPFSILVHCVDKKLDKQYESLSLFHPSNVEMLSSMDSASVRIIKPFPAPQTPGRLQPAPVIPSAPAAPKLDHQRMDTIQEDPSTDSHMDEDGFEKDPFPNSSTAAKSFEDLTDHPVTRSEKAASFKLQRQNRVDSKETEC
protocol-text: Inhibition of Tumor necrosis factor-alpha (TNF-alpha) release in human whole blood
Assay type: functional, tissue-based
endpoint-name: pIC50
# reply with the number alone; pIC50 is -log10 of concentration in mol/L

| compound-structure | pIC50 |
| --- | --- |
| CC(=O)N1CCN(S(=O)(=O)c2ccc(OCc3cc(F)cc(F)c3)cc2)[C@@H](C(=O)NO)[C@@H]1C | 6.00 |
| C[C@@H]1NCCN(S(=O)(=O)c2ccc(OCc3ccccc3)cc2)[C@H]1C(=O)NO | 4.74 |
| CCc1ccccc1COc1ccc(S(=O)(=O)N2CCN(C(C)=O)[C@@H](C)[C@@H]2C(=O)NO)cc1 | 6.22 |
| Cc1ccccc1COc1ccc(S(=O)(=O)N2CCN(Cc3ccccc3)[C@@H](C)[C@@H]2C(=O)NO)cc1 | 4.48 |
| Cc1ccccc1COc1ccc(S(=O)(=O)N2CCN(C(=O)NC(C)C)[C@@H](C)[C@@H]2C(=O)NO)cc1 | 5.52 |
| CC(=O)N1CCN(S(=O)(=O)c2ccc(OCc3ccc(F)cc3)cc2)[C@@H](C(=O)NO)[C@@H]1C | 5.70 |
| CC(=O)N1CCN(S(=O)(=O)c2ccc(OCc3cncc4ccccc34)cc2)[C@@H](C(=O)NO)[C@@H]1C | 6.40 |
| CC(=O)N1CCN(S(=O)(=O)c2ccc(OCc3ccccc3C(F)(F)F)cc2)[C@@H](C(=O)NO)[C@@H]1C | 5.70 |
| CC(=O)N1CCN(S(=O)(=O)c2ccc(OCc3ccnc4ccccc34)cc2)[C@@H](C(=O)NO)[C@@H]1C | 6.52 |
| CC(=O)N1CCN(S(=O)(=O)c2ccc(OCc3cccnc3C)cc2)[C@@H](C(=O)NO)[C@@H]1C | 6.10 |

Kindly consider the entry below.
Lookup: Need pIC50 of `CC(=O)N1CCN(S(=O)(=O)c2ccc(OCc3ccccc3C)cc2)[C@@H](C(=O)NO)[C@@H]1C` , thanks.
Found: 6.00

====

protocol-text: Half in rat i.v.
Format: ADME, organism-based
assay-setup: in vivo, iv
endpoint-name: half-life (min)
The figure you give is taken to be in min; do not add the unit.

Lookup: Looking for the measured half-life of `Cc1ccccc1COc1ccc(S(=O)(=O)N2CCN(S(C)(=O)=O)[C@@H](C)[C@@H]2C(=O)NO)cc1` , can you help?
Found: 12.6

====

measured-on: Disintegrin and metalloproteinase domain-containing protein 17 (Homo sapiens)
protocol-text: Inhibition of human recombinant tumor necrosis factor-alpha converting enzyme.
# reported IC50; entries follow

Check out these entries, answers already filled in.
| compound-structure | IC50 |
| --- | --- |
| CC(=O)N1CCN(S(=O)(=O)c2ccc(OCc3cc(F)cc(F)c3)cc2)[C@@H](C(=O)NO)[C@@H]1C | 6 nM |
| CC(=O)N1CCN(S(=O)(=O)c2ccc(OCc3cc(F)ccc3C)cc2)[C@@H](C(=O)NO)[C@@H]1C | 7 nM |

Lookup: Dear colleague, I am looking for the recorded IC50 of the following compound: `Cc1ccccc1COc1ccc(S(=O)(=O)N2CCN(Cc3ccccc3)[C@@H](C)[C@@H]2C(=O)NO)cc1`
Found: 68 nM

Lookup: Entry to check: `CC(=O)N1CCN(S(=O)(=O)c2ccc(OCc3ccccc3C)cc2)[C@@H](C(=O)NO)[C@@H]1C`
Found: 6 nM

Lookup: Also check `Cc1ccccc1COc1ccc(S(=O)(=O)N2CCN(C)[C@@H](C)[C@@H]2C(=O)NO)cc1`
Found: 31 nM

====

Target protein (sequence): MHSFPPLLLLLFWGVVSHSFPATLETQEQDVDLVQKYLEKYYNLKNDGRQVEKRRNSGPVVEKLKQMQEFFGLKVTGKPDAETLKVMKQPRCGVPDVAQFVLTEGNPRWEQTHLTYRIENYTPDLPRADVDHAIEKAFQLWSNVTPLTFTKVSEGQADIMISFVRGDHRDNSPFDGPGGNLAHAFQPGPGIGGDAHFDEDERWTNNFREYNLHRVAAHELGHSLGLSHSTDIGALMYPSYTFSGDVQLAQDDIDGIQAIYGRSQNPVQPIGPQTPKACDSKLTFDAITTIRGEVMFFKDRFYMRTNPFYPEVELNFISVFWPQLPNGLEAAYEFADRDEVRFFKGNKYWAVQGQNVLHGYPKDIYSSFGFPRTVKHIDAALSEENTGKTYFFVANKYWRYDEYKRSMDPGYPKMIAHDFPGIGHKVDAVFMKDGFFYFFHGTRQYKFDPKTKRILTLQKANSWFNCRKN
Collected IC50 values appear next to each entry.
The figure you give is taken to be in nM; do not add the unit.

| compound | IC50 [nM] |
| --- | --- |
| CCc1ccccc1COc1ccc(S(=O)(=O)N2CCN(C(C)=O)[C@@H](C)[C@@H]2C(=O)NO)cc1 | 6700 |
| CC(=O)N1CCN(S(=O)(=O)c2ccc(OCc3ccc(F)cc3)cc2)[C@@H](C(=O)NO)[C@@H]1C | 1700 |
| CC(=O)N1CCN(S(=O)(=O)c2ccc(OCc3cncc4ccccc34)cc2)[C@@H](C(=O)NO)[C@@H]1C | 6400 |
| Cc1ccccc1COc1ccc(S(=O)(=O)N2CCN(Cc3ccccc3)[C@@H](C)[C@@H]2C(=O)NO)cc1 | 17000 |

Lookup: Reported IC50, compound `CC(=O)N1CCN(S(=O)(=O)c2ccc(OCc3cccnc3C)cc2)[C@@H](C(=O)NO)[C@@H]1C` : ____
Found: 3400

Lookup: Same question, `C#CCOc1ccc(S(=O)(=O)N(C)c2c(C)cc(Br)cc2C(=O)NO)cc1` this time
Found: 52

Lookup: Further, for `COC(=O)N1CCN(S(=O)(=O)c2ccc(OCc3ccccc3C)cc2)[C@@H](C(=O)NO)[C@@H]1C` ?
Found: 1500

Lookup: Follow-up item: `CC(=O)N1CCN(S(=O)(=O)c2ccc(OCc3cc(F)ccc3C)cc2)[C@@H](C(=O)NO)[C@@H]1C`
Found: 1900

Lookup: Same for `Cc1ccccc1COc1ccc(S(=O)(=O)N2CCN[C@@H](C)[C@@H]2C(=O)NO)cc1`
Found: 12000

Lookup: How about `CCOC(=O)N1CCN(S(=O)(=O)c2ccc(OCc3ccccc3C)cc2)[C@@H](C(=O)NO)[C@@H]1C` ?
Found: 1500

Lookup: Next up: CC[C@H](C)[C@H](NC(=O)C(CC(C)C)[C@H](C(C)C)N(O)C=O)C(=O)Nc1ccccn1 (stereo partly specified)
Found: 19

====

protocol-text: Pharmacokinetic property (Clp) in rat
Type: ADME, organism-based
assay-setup: plasma, read-out: Clp
endpoint-name: clearance (mL/min/kg)
Give just the number in mL/min/kg; leave the unit off.

| compound-structure | value-unit | clearance |
| --- | --- | --- |
| CC(=O)N1CCN(S(=O)(=O)c2ccc(OCc3ccccc3C)cc2)[C@@H](C(=O)NO)[C@@H]1C | mL/min/kg | 54 |

Let's switch to this compound now.
Lookup: # get_value(readout='clearance', item= `Cc1ccccc1COc1ccc(S(=O)(=O)N2CCN[C@@H](C)[C@@H]2C(=O)NO)cc1` )
Found: 83

====

Below are pIC50 values measured for Collagenase 3 (Homo sapiens).
// pIC50 is dimensionless: -log10 of concentration (M)

Examples from the recorded data:
| molecule | reported-result |
| --- | --- |
| CC(=O)N1CCN(S(=O)(=O)c2ccc(OCc3cccnc3C)cc2)[C@@H](C(=O)NO)[C@@H]1C | 8.10 |
| CC(=O)N1CCN(S(=O)(=O)c2ccc(OCc3ccc(F)cc3)cc2)[C@@H](C(=O)NO)[C@@H]1C | 8.52 |
| CCOC(=O)N1CCN(S(=O)(=O)c2ccc(OCc3ccccc3C)cc2)[C@@H](C(=O)NO)[C@@H]1C | 8.22 |
| CCc1ccccc1COc1ccc(S(=O)(=O)N2CCN(C(C)=O)[C@@H](C)[C@@H]2C(=O)NO)cc1 | 7.40 |
| CC(=O)N1CCN(S(=O)(=O)c2ccc(OCc3ccnc4ccccc34)cc2)[C@@H](C(=O)NO)[C@@H]1C | 7.77 |

Lookup: Under Collagenase 3 (Homo sapiens): pIC50 value of CC[C@H](C)[C@H](NC(=O)C(CC(C)C)[C@H](C(C)C)N(O)C=O)C(=O)Nc1ccccn1 (some centres not stated) ?
Found: 8.15

Lookup: What do we get for `CC(=O)N1CCN(S(=O)(=O)c2ccc(OCc3cncc4ccccc34)cc2)[C@@H](C(=O)NO)[C@@H]1C` ?
Found: 7.01

====

This section presents compounds with their documented pIC50 values.
measured-on: Disintegrin and metalloproteinase domain-containing protein 17 (Homo sapiens, UniProt P78536)
protocol-text: Inhibition of human recombinant tumor necrosis factor-alpha converting enzyme.
To interpret pIC50, take it as minus log10 of a concentration measured in moles per litre.

Sample records with pIC50:
| compound | reported-result |
| --- | --- |
| CC(=O)N1CCN(S(=O)(=O)c2ccc(OCc3ccccc3C(F)(F)F)cc2)[C@@H](C(=O)NO)[C@@H]1C | 7.96 |
| Cc1ccccc1COc1ccc(S(=O)(=O)N2CCN(C(=O)NC(C)C)[C@@H](C)[C@@H]2C(=O)NO)cc1 | 7.47 |
| Cc1ccccc1COc1ccc(S(=O)(=O)N2CCN(C(=O)Nc3ccccc3)[C@@H](C)[C@@H]2C(=O)NO)cc1 | 7.59 |
| Cc1ccccc1COc1ccc(S(=O)(=O)N2CCN(S(C)(=O)=O)[C@@H](C)[C@@H]2C(=O)NO)cc1 | 8.22 |
| CCc1ccccc1COc1ccc(S(=O)(=O)N2CCN(C(C)=O)[C@@H](C)[C@@H]2C(=O)NO)cc1 | 8.15 |
| CC(=O)N1CCN(S(=O)(=O)c2ccc(OCc3ccc(F)cc3)cc2)[C@@H](C(=O)NO)[C@@H]1C | 8.22 |
| CC[C@H](C)[C@H](NC(=O)C(CC(C)C)[C@H](C(C)C)N(O)C=O)C(=O)Nc1ccccn1 (stereo partly drawn) | 7.40 |

As a next step, examine the compound that follows.
Lookup: Any idea what pIC50 was measured for `Cc1ccc(S(=O)(=O)N2CCN(S(=O)(=O)c3ccc(OCc4ccccc4C)cc3)[C@@H](C(=O)NO)[C@@H]2C)cc1` ?
Found: 7.49
